# protocol description: Excitation and fluorescence wavelengths by fluorescence spectrometer FL4500
# Type: physicochemical
# condition description: values in a chloroform solution (Examples 95 to 106); in nm (unit assumed)
property name: λex (excitation wavelength)

molecule: CCCCc1ccc(Nc2ccc3c4c(cc(=O)n3C)-c3ccccc3C(=O)c24)cc1 [Compound 118]
measured number: 540

molecule: COc1ccc(Nc2ccc3c4c(cc(=O)n3C)-c3ccccc3C(=O)c24)cc1 [Compound 116]
measured number: 537

molecule: Cc1cccc(C)c1Nc1ccc2c3c(cc(=O)n2C)-c2ccccc2C(=O)c13 [Compound 122]
measured number: 534

molecule: Cc1cccc(Nc2ccc3c4c(cc(=O)n3C)-c3ccccc3C(=O)c24)c1 [Compound 115]
measured number: 540

---

# protocol description: Excitation and fluorescence wavelengths by fluorescence spectrometer FL4500
# Type: physicochemical
# condition description: aqueous solution: 10 mg/mL DMSO solution diluted to 1/500 with purified water (Examples 1 to 94); in nm (unit assumed)
property name: λex (excitation wavelength)

// known answers, use as guide
compound: CCN(CC)CC.O=S(=O)([O-])CCC[n+]1c(/C=C/C=C2\Sc3ccccc3N2CCCS(=O)(=O)O)sc2ccccc21
property name: λex (excitation wavelength)
measured number: 545

compound: COc1ccc(N2c3ccc(/C=C/c4sc5ccccc5[n+]4CC(=O)O)cc3C3CCCC32)cc1.[Br-] (stereo not shown)
property name: λex (excitation wavelength)
measured number: 560

compound: CC[n+]1c(C=C2SCC(=O)N2c2ccccc2)sc2ccccc21.[Br-]
property name: λex (excitation wavelength)
measured number: 353

compound: O=C1C=Cc2cc(S(=O)(=O)O)cc(S(=O)(=O)O)c2/C1=N/Nc1ccc(S(=O)(=O)O)c2ccccc12
property name: λex (excitation wavelength)
measured number: 473

compound: CCCN(CCC)c1ccc2cc(-c3nc4ccccc4[nH]3)c(=O)oc2c1
property name: λex (excitation wavelength)
measured number: 463

[P] COc1ccc2cc(N3c4ccc(/C=C/c5sc6ccccc6[n+]5CC(=O)O)cc4C4CCCC43)ccc2c1.[Br-] (stereo not shown)
[Q] CCOC(=O)Cn1c(=O)/c(=C\c2ccc3c(c2)C2CCCC2N3c2ccc3cc(OC)ccc3c2)s/c1=C1/SC(=O)N(CC)C1=O (stereo not shown)
Query :: # returns the entry with the larger λex (excitation wavelength); inputs P and Q Answer with the label corresponding to your selection.
Result :: Q

---

# Test system: intraocular tissue (retinal tissue incl. photoreceptor cell layer, vitreous body) of Zebrafish 7-day-old embryo
# protocol description: Staining of intraocular tissue of Zebrafish fry by exposure to staining liquid, ocular tissue section observed by confocal microscope
# Assay type: in vivo
# condition description: Zebrafish 7 dpf fry, 1 μg/mL, 1 hour exposure, fixed ocular section
property name: Staining ability

compound: CC1(C)C(/C=C/c2ccc3c(c2)C2CCCC2N3c2ccc(C=C(c3ccccc3)c3ccccc3)cc2)=[N+](CCC(=O)O)c2ccc3ccccc3c21 (stereo not drawn)
Staining ability: ++
--
compound: CCCCc1ccc(Nc2ccc3c4c(cc(=O)n3C)-c3ccccc3C(=O)c24)cc1
Staining ability: ∘
--
compound: CCN1C(=O)/C(=c2/s/c(=C/c3ccc4c(c3)C3CCCC3N4c3ccc(C=C(c4ccccc4)c4ccccc4)cc3)c(=O)n2CC(=O)O)SC1=S (stereo not drawn)
Staining ability: ++
--
compound: CCN(CC)c1ccc2cc(-c3nc4ccc(C)cc4o3)c(=O)oc2c1
Staining ability: +++
--
compound: O=C1C=Cc2cc(S(=O)(=O)O)cc(S(=O)(=O)O)c2/C1=N/Nc1ccc(S(=O)(=O)O)c2ccccc12
Staining ability: ++

Query :: What Staining ability value was documented for this compound, COc1ccc2cc(N3c4ccc(/C=C5\SC(=S)N(CC(=O)O)C5=O)cc4[C@@H]4CCC[C@@H]43)ccc2c1 ?
Result :: +++

Query :: Also Nc1c(OCCOC(=O)Oc2ccccc2)cc(O)c2c1C(=O)c1ccccc1C2=O ?
Result :: ∘

Query :: Also CCOc1ccc(Nc2ccc3c4c(cc(=O)n3C)-c3ccccc3C(=O)c24)cc1 ?
Result :: ∘

Query :: Also O=C1OC2(c3ccc(O)cc3Oc3cc(O)ccc32)c2ccccc21 [Fluorescein, fluorescein, reference compound] ?
Result :: −
